Recorded values, source paper PMC5106240.

test system: MES-induced convulsions; assay: MES-induced seizure model; assay type: in vivo, Wistar rats; settings: rats, 10 mg/kg IP, vs saline-treated group
OUTCOME MEASURE: Protective effect on MES-induced convulsions (duration of THLE)

O=C1NC(=O)C(c2ccccc2)(c2ccccc2)N1 | fully
